B1: glmS ribozyme (parent)
chain: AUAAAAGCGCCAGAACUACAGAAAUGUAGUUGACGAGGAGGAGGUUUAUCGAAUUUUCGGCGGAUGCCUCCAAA

Variants of: B1
protocol summary: self-cleavage kobs at 10000 uM GlcN6P; higher = faster cleavage; RNA array
conditions used: with glucosamine-6-phosphate
This sample holds only a part of the variants without activity.
readout label: self-cleavage kobs at 10000 uM GlcN6P

{"mutation list": "G38C U56C", "readout label": "self-cleavage kobs at 10000 uM GlcN6P", "result": "< 1e-05 s⁻¹"}
{"mutation list": "C34U G38C G60C", "readout label": "self-cleavage kobs at 10000 uM GlcN6P", "result": "< 1e-05 s⁻¹"}
{"mutation list": "C34A A36G", "readout label": "self-cleavage kobs at 10000 uM GlcN6P", "result": "< 1e-05 s⁻¹"}
{"mutation list": "A48C C58A C61U", "readout label": "self-cleavage kobs at 10000 uM GlcN6P", "result": "< 1e-05 s⁻¹"}
{"mutation list": "G44A G60A", "readout label": "self-cleavage kobs at 10000 uM GlcN6P", "result": "< 1e-05 s⁻¹"}
{"mutation list": "G7C U49A", "readout label": "self-cleavage kobs at 10000 uM GlcN6P", "result": "< 1e-05 s⁻¹"}
{"mutation list": "C11G G43U A48U C61G A64G", "readout label": "self-cleavage kobs at 10000 uM GlcN6P", "result": "< 1e-05 s⁻¹"}
{"mutation list": "A15G U49G G60A", "readout label": "self-cleavage kobs at 10000 uM GlcN6P", "result": "< 1e-05 s⁻¹"}
{"mutation list": "U30A G51C", "readout label": "self-cleavage kobs at 10000 uM GlcN6P", "result": "< 1e-05 s⁻¹"}
{"mutation list": "G37U G40C A64U", "readout label": "self-cleavage kobs at 10000 uM GlcN6P", "result": "< 1e-05 s⁻¹"}
{"mutation list": "G40C G63A", "readout label": "self-cleavage kobs at 10000 uM GlcN6P", "result": "< 1e-05 s⁻¹"}
{"mutation list": "G38A G59C U65C C70A", "readout label": "self-cleavage kobs at 10000 uM GlcN6P", "result": "< 1e-05 s⁻¹"}
{"mutation list": "G29C A39U", "readout label": "self-cleavage kobs at 10000 uM GlcN6P", "result": "0.00153 s⁻¹"}
{"mutation list": "G60U G66U", "readout label": "self-cleavage kobs at 10000 uM GlcN6P", "result": "< 1e-05 s⁻¹"}
{"mutation list": "U30A G40U", "readout label": "self-cleavage kobs at 10000 uM GlcN6P", "result": "0.000446 s⁻¹"}
{"mutation list": "G32C G35C U49C C68A", "readout label": "self-cleavage kobs at 10000 uM GlcN6P", "result": "< 1e-05 s⁻¹"}
{"mutation list": "G29A G40U", "readout label": "self-cleavage kobs at 10000 uM GlcN6P", "result": "0.000182 s⁻¹"}
{"mutation list": "A14U G43C U69A", "readout label": "self-cleavage kobs at 10000 uM GlcN6P", "result": "< 1e-05 s⁻¹"}
